B1: HDV Ribozyme (parent)
chain: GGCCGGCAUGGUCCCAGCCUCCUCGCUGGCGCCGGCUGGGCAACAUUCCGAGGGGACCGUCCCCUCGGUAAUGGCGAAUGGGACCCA

variants of: B1; assay: self-cleavage, relative activity (ratio to wild type); higher = more cleavage; co-transcriptional
Recorded self-cleavage determines the label; the label ranges are low end = under 0.1, middle = from 0.1 up to 0.5, high end = 0.5 and over

Use the examples below as a reference point.
> print(dat)
                           primary.sequence  label.value
1  GGCCGGCCUGGUCCCAGCCUCCUCGCUGGCGCCGGCUGGGCAACAUGCCGAGGGGACCGUCCCCUCGGUAAUGGCGAAUGGGACCCA [A8C U47G]     high end
2  GGCCGGCAUGGUCCCAGCCUCCUCGCUGGCGCGGGCUUGGCAACAUUCCGAGGGGACCGUCCCCUCGGUAAUGGCGAAUGGGACCCA [C33G G38U]       middle
3  GGCCGGCAUGGUCCCAGCCUACUCGCUGGCGCCGGCUGGGCAACAUUCCGAGGGGACCGUCCCCUCGGUAAUGGCGAAUGGGACUCA [C21A C85U]       middle
4  GGCCGGCAUGGUCCCAGCCUCCUCGCUGGCGCUGGCUGGGCAACAUUCCGAGGGGACCGUCCCCUCGGUAAUGGCGAAUAGGACCCA [C33U G80A]       middle
5  GGACGGCAUGGUCCCAGCCUCCUCGCUGGCGCCGGAUGGGCAACAUUCCGAGGGGACCGUCCCCUCGGUAAUGGCGAAUGGGACCCA [C3A C36A]      low end
6  GGCCGGCAUGGUCCCAGCCUCCACGCUGGCGCCGGCUGGGCAACAUUCCGAGGGGACCGACCCCUCGGUAAUGGCGAAUGGGACCCA [U23A U60A]     high end

# classify by self-cleavage band: GGCCGGCAUGGUCCCAGCCUCCUCGCUGGCGCCGGCUGGGCAACAUUCCGAGGGGAUUGUCCCCUCGGUAAUGGCGAAUGGGACCCA [C57U C58U]
high end

Next entry: GGCCGGCAUGGUCCCAGCCUCCUCGCUGGCGCCGGCUGGGCAACAUUCCGAGGGGACCGUCCCCUCGGUAAUGGAGAAUGGGACGCA [C75A C85G]
middle

Same read-out for GGCCGGCAUGGUCCCAGCCUCCUCGCUGGCGCCGGAUGGGCAACAUUCCCAGGGGACCGUCCCCUCGGUAAUGGCGAAUGGGACCCA [C36A G50C] ?
middle

Same thing, different variant: GGCCGGCAUGGUCCCAGCCUCCUCGCUGGCGCCGGCUGGGCGACAUUCCGAGGGGACCGUCCCCUCGGUAAUGGCGAAGGGGACCCA [A42G U79G]
middle

Query GGCCGGCAUGGUCCCAGCCUCCUCGCUCGCGCCGGCUGGGCAACAUUCCGAGGCGACCGUCCCCUCGGUAAUGGCGAAUGGGACCCA [G28C G54C] next
low end

Another variant: GGCCGGCAUGGUCACAGCCUCGUCGCUGGCGCCGGCUGGGCAACAUUCCGAGGGGACCGUCCCCUCGGUAAUGGCGAAUGGGACCCA [C14A C22G]
low end

Check GGCCGGCAUGGUUCCAGCCUCCUCGCUGCCGCCGGCUGGGCAACAUUCCGAGGGGACCGUCCCCUCGGUAAUGGCGAAUGGGACCCA [C13U G29C] too.
low end

Now the variant GGCCGGCAUGGUCCCAGCCUCCGCGCUGGCGACGGCUGGGCAACAUUCCGAGGGGACCGUCCCCUCGGUAAUGGCGAAUGGGACCCA [U23G C32A]
low end

Would you mind doing GGCCGGCAUGGUCCCAGCCUCUUCGCUGGCGCCGGCUGGGCAACAUUCCGGGGGGACCGUCCCCUCGGUAAUGGCGAAUGGGACCCA [C22U A51G] as well?
high end

Now try GGCCGGCAUGGUCCCAGCCUCCUCGCUGGCGCCGGCUGGGCAACAUUCCGAGGGGACCGUCCCUUCGGUAAUGGCGAAAGGGACCCA [C64U U79A] .
high end

Input GGCCGGCAUGGUCCCAGCCUCCUCGCUUGCGCCGGCUGGGCAACAUUCCGAGGGGACCGGCCCCUCGGUAAUGGCGAAUGGGACCCA [G28U U60G]
middle

Also check GGCCGGCAUGGUCCCAGCCUUCUCGCUGGCGCCGGCUGGGCAACAUUCCGAGGGGACCGUCGCCUCGGUAAUGGCGAAUGGGACCCA [C21U C62G]
middle

Consider next the variant GGCCGGCAUAGUCCCAGCCUCCUCGCUGGCGCCGGCUGGGCAAUAUUCCGAGGGGACCGUCCCCUCGGUAAUGGCGAAUGGGACCCA [G10A C44U] in the same way.
middle
